Each item that follows carries a reported self-splicing fitness (ln).
Assay: self-splicing fitness, log relative to wild type (ln ratio); higher = more splicing; Tetrahymena group I intron in knt gene, E. coli kanamycin selection, DiMSum; sequences stand for … in CUCUCU…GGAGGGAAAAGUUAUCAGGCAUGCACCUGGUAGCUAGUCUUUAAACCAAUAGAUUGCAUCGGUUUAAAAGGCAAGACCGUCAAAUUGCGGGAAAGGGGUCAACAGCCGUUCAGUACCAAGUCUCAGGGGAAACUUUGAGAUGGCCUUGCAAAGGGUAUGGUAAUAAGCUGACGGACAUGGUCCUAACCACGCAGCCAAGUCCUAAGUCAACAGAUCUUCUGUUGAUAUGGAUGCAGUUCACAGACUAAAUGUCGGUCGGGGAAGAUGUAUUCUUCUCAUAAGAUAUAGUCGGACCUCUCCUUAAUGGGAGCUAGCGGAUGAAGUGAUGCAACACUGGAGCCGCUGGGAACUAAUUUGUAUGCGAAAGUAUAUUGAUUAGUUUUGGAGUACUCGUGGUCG;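 further: selection with 25 µg/mL kanamycin versus none on LB agar overnight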
Conditions: 30 °C
Reply with the value as a number alone.

- ENTRY_SEQUENCE: "CCCUAGCAAUAUUACGGUUA"
  RECORDED_VALUE: -4.05
- ENTRY_SEQUENCE: "AUAUAGCAAUAUUACGAACG"
  RECORDED_VALUE: -1.56
- ENTRY_SEQUENCE: "CGAUAGCAAUAUUACGAGCC"
  RECORDED_VALUE: -2.23
- ENTRY_SEQUENCE: "UCAAAGCAAUAUUACGCUCG"
  RECORDED_VALUE: -0.615
- ENTRY_SEQUENCE: "AACAAGCAAUAUUACGCCUU"
  RECORDED_VALUE: -0.742

Value of self-splicing fitness (ln) reported for the sequence `GAGAAGCAAUAUUACGUGUG` is -2.18

Value of self-splicing fitness (ln) reported for the sequence `AUAUAGCAAUAUUACGGGAG` is -4.22

Value of self-splicing fitness (ln) reported for the sequence `ACCGAGCAAUAUUACGGGUC` is -4.23

Value of self-splicing fitness (ln) reported for the sequence `UAGUAGCAAUAUUACGUCGU` is -3.76

Value of self-splicing fitness (ln) reported for the sequence `CCAGAGCAAUAUUACGAUAG` is -1.42

Value of self-splicing fitness (ln) reported for the sequence `UCCUAGCAAUAUUACGCUCC` is -3.73

Value of self-splicing fitness (ln) reported for the sequence `UGGUAGCAAUAUUACGAACC` is -2.54

---

Test: self-splicing fitness, log relative to wild type (ln ratio); higher = more splicing; Tetrahymena group I intron in knt gene, E. coli kanamycin selection, DiMSum; sequences stand for … in CUCUCU…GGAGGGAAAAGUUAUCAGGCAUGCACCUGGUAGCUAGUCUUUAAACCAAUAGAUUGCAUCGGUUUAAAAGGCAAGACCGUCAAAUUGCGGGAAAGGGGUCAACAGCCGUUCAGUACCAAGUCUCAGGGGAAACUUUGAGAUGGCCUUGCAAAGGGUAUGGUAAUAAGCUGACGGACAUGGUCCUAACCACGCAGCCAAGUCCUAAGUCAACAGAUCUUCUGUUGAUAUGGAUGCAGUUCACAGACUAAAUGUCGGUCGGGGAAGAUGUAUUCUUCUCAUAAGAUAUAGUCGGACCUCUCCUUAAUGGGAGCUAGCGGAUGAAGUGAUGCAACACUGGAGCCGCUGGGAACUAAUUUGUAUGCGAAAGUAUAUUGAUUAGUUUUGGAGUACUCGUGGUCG
Conditions: 37 °C
ASSAY_METRIC: self-splicing fitness (ln)
Reply with the value as a number alone.

Study these solved cases before continuing.
- ENTRY_SEQUENCE: "ACUAAGCAAUAUUACGAAUA"
  self-splicing fitness (ln): -2.55
- ENTRY_SEQUENCE: "CAGAAGCAAUAUUACGAGGC"
  self-splicing fitness (ln): -2.83

Value of self-splicing fitness (ln) reported for the sequence `GUAUAGCAAUAUUACGGAUC` is -0.016

Value of self-splicing fitness (ln) reported for the sequence `UGUUAGCAAUAUUACGAUGA` is -1.06

---

Each item that follows carries a reported self-splicing fitness (ln).
Assay: self-splicing fitness, log relative to wild type (ln ratio); higher = more splicing; Tetrahymena group I intron in knt gene, E. coli kanamycin selection, DiMSum; sequences stand for … in CUCUCU…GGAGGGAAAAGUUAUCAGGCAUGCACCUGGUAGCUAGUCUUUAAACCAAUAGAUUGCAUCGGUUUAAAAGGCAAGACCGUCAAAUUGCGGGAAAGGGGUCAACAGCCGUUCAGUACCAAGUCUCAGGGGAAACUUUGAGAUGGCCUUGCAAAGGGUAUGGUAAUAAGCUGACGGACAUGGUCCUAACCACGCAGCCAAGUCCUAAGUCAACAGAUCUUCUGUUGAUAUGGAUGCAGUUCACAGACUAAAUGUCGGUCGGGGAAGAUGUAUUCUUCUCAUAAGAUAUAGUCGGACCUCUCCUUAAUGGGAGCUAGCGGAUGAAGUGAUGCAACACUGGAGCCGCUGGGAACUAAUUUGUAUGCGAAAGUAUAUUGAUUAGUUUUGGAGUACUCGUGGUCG
Conditions: 30 °C
Reply with the value as a number alone.

- ENTRY_SEQUENCE: "CUACAGCAAUAUUACGAAAG"
  self-splicing fitness (ln): -1.42
- ENTRY_SEQUENCE: "GUUCAGCAAUAUUACGGGGG"
  self-splicing fitness (ln): -1.52
- ENTRY_SEQUENCE: "UAUAAGCAAUAUUACGAACC"
  self-splicing fitness (ln): -2.5
- ENTRY_SEQUENCE: "CUGGAGCAAUAUUACGGCUG"
  self-splicing fitness (ln): -1.48
- ENTRY_SEQUENCE: "CUUCAGCAAUAUUACGCGUC"
  self-splicing fitness (ln): -2.6

Value of self-splicing fitness (ln) reported for the sequence `GGGAAGCAAUAUUACGAAAU` is -3.24

Value of self-splicing fitness (ln) reported for the sequence `UGGUAGCAAUAUUACGUGUU` is -3.24

Value of self-splicing fitness (ln) reported for the sequence `AGCUAGCAAUAUUACGACCG` is -1.53

Value of self-splicing fitness (ln) reported for the sequence `GAUUAGCAAUAUUACGUGAG` is -1.33

Value of self-splicing fitness (ln) reported for the sequence `CGGGAGCAAUAUUACGGCUC` is -3

Value of self-splicing fitness (ln) reported for the sequence `GUAGAGCAAUAUUACGAUCA` is -1.28

Value of self-splicing fitness (ln) reported for the sequence `AGCAAGCAAUAUUACGAGGG` is -3.29

Value of self-splicing fitness (ln) reported for the sequence `UUCUAGCAAUAUUACGACUU` is -1.77

Value of self-splicing fitness (ln) reported for the sequence `GCCAAGCAAUAUUACGCUGC` is -3.01

Value of self-splicing fitness (ln) reported for the sequence `CUACAGCAAUAUUACGAGCA` is -2.77

Value of self-splicing fitness (ln) reported for the sequence `GCGUAGCAAUAUUACGGGUC` is -3.34

---

Each item that follows carries a reported self-splicing fitness (ln).
Experiment: self-splicing fitness, log relative to wild type (ln ratio); higher = more splicing; Tetrahymena group I intron in knt gene, E. coli kanamycin selection, DiMSum; sequences stand for … in CUCUCU…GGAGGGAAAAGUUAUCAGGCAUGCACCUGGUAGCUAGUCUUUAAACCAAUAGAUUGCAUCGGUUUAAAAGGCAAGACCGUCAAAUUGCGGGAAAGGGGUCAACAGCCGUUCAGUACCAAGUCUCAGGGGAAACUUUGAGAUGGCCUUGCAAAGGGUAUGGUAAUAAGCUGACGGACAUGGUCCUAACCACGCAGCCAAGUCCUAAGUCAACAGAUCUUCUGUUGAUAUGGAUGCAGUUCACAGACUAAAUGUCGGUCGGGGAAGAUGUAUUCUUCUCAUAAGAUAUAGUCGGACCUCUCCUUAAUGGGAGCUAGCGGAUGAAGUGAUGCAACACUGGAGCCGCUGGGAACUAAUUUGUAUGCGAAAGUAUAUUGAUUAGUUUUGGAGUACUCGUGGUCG
Details: 30 °C

- ENTRY_SEQUENCE: "AGGCAGCAAUAUUACGGUGC"
  self-splicing fitness (ln): -3.54
- ENTRY_SEQUENCE: "AGAGAGCAAUAUUACGGUCU"
  self-splicing fitness (ln): -3.2
- ENTRY_SEQUENCE: "GGGUAGCAAUAUUACGUUGA"
  self-splicing fitness (ln): -2.44
- ENTRY_SEQUENCE: "UUCGAGCAAUAUUACGGUCU"
  self-splicing fitness (ln): -5
- ENTRY_SEQUENCE: "GCCCAGCAAUAUUACGACGG"
  self-splicing fitness (ln): -3.59

Value of self-splicing fitness (ln) reported for the sequence `UUAGAGCAAUAUUACGCCGA` is -0.286

Value of self-splicing fitness (ln) reported for the sequence `UAAGAGCAAUAUUACGCUAG` is -3.86

Value of self-splicing fitness (ln) reported for the sequence `AGCAAGCAAUAUUACGGGAU` is -2.79

Value of self-splicing fitness (ln) reported for the sequence `GACAAGCAAUAUUACGUGCC` is -1.69

Value of self-splicing fitness (ln) reported for the sequence `GACUAGCAAUAUUACGAUAG` is -2.95

Value of self-splicing fitness (ln) reported for the sequence `CUCCAGCAAUAUUACGUCAC` is -3.88
